- System: HL-60(TB) leukemia
- assay-name: NCI-60 one-dose screen, 48 h (100 = growth as untreated, 0 = no growth, -100 = all killed)
- protocol-conditions: 10 µM unless noted
- Procedure: Growth inhibition of the HL-60(TB) human tumor cell line is measured as a screen for anti-cancer activity. Cells are grown in 96 well plates and exposed to the test compound for 48 hours. Compounds are tested at a single concentration, which is 10^-5 M for most compounds. The reported endpoint is percent growth (GI% or GIPRCNT), where numbers from 0 - 100% represent growth inhibition, and numbers from -100% - 0 represent cell death. For example, a value of 40 represents 60% growth inhibition. […]
Compounds without any hit were thinned out: in the full panel of roughly 83,000, 20% have a hit.
List of growth values.
Value expressed in %; do not type the unit.

For orientation, consider the following solved cases.
- CCOC(=O)C(CCC1=NC(C)(C)CC(C)O1)C(=O)OCC (stereo not given): 56.4
- CCOc1ccc(/C=N/NC(=O)c2cccc3ccccc23)cc1OCC: 100

Param readout= growth; system= HL-60(TB) leukemia; entry= Nc1nc(Cl)cc(NCCCCNc2cc(Cl)nc(N)n2)n1 ; returns value. 101

Field entry: Cc1ccsc1C(NC(=O)c1ccccc1)c1cc(Cl)c2cccnc2c1O (stereo not given) 12.4

Field entry: CC(=O)NCC(=O)Nc1ccc(-c2nnc3ccccn23)nc1.CC(=O)NCC(=O)Nc1ccc(-c2nnc3ccccn23)nc1.[Pt+2] 109

====

- Tested on: HL-60(TB) leukemia
- assay-name: NCI-60 one-dose screen, 48 h
- protocol-conditions: 10 µM unless noted
About 83,000 compounds went through this panel and 20% of them were active in at least one assay; those are over-represented in the sample as a whole. Active and inactive are the calls of the source. Rule for the calls: active = growth percent below 10; inactive = the rest.
Your answer must be one of the following: y = active, n = inactive

- O=c1c2c3c(sc2n2c(CCl)nnc2n1Cc1ccccc1)CCCC3: y
- C=C(c1ccc(C(=O)NCCCn2ccnc2)cc1)c1cc2c(cc1C)C(C)(C)CCC2(C)C: y
- CCC(C)(C)c1cc(O)c(C(C)(C)CC)cc1O: y

Name the outcome recorded for CN(C)CCN1C(=O)c2cccc3c(N)ccc(c23)C1=O in the assay. y

====

- Tested on: HL-60(TB) leukemia
- assay-name: NCI-60 one-dose screen, 48 h
- protocol-conditions: 10 µM unless noted
The panel holds about 83,000 compounds, 20% with a hit somewhere; the sample as a whole holds those more often. Active and inactive are the calls of the source. How the source made its calls: active means growth percent below 10; inactive means the rest.
Your answer must be one of the following: active, inactive

Study these solved cases before continuing.
* COc1cc(-c2nn3c(/C=C4/C(=O)Nc5ccccc54)c(-c4ccc(C)cc4)nc3s2)cc(OC)c1OC | inactive
* CCCCCCCCCCCCCCC(C(=O)OCC)C(=O)OCC | inactive
* CCN(CC)c1ccc(/C=C/C(=O)c2cccc(NS(C)(=O)=O)c2)cc1 | active

Name the outcome recorded for CC(=O)[O][Hg][c]1ccccc1 in the assay. active

Field entry: CN(C)c1ccc(/C=C2\C=C(c3nc4ccccc4s3)OC2=O)cc1 inactive

Field entry: Cc1ccc(CC#N)cc1C inactive

Field entry: CN(C1c2ccccc2Oc2ccccc21)S(=O)(=O)c1cc(Cl)ccc1Cl inactive

====

List of growth values.
- Tested on: OVCAR-4 ovarian
- assay-name: NCI-60 one-dose screen, 48 h (100 = growth as untreated, 0 = no growth, -100 = all killed)
- protocol-conditions: 10 µM unless noted
Compounds without any hit were thinned out: in the full panel of roughly 83,000, 20% have a hit.
Value expressed in %; do not type the unit.

- CN=C(NN)NN: 117
- CCC(C)(C)O: 111
- O=c1[nH]c2cc(Cl)ccc2n1C1CCN(CCCC(c2ccc(F)cc2)c2ccc(F)cc2)CC1: 56.6
- FC(F)=C(F)c1ccccc1: 111
- CC1(C)N=C(N)N=C(N)N1c1ccc(OCCCCOc2ccc(S(=O)(=O)F)cc2)c(Cl)c1: 57

Param readout= growth; system= OVCAR-4 ovarian; entry= O=C(Nc1ccc(S(=O)(=O)F)cc1)Oc1ccccc1 ; returns value. 97

Field entry: CC(CC(C#N)(c1ccccc1)c1ccccc1)N1CCOCC1 (stereo unspecified) 108

Field entry: CC1(C)CC(=O)CC(C)(C)N1N=O 113

Field entry: C1CN1c1nc(N2CC2)nc(N2CC2)n1 44.6

Field entry: NC(=O)C(Cl)Cl 105

Field entry: O=C(CCCN1CCC2(CC1)C(=O)NCN2c1ccc(F)cc1)c1ccc(F)cc1 108

Field entry: Nc1cccc2c1Oc1ccccc1O2 115

====

- Test system: MDA-MB-435 melanoma
- assay-name: NCI-60 one-dose screen, 48 h
- protocol-conditions: 10 µM unless noted
The panel holds about 83,000 compounds, 20% with a hit somewhere; the sample as a whole holds those more often. Active and inactive are the calls of the source. The calls were made as follows: active = growth percent below 10; inactive = the rest.
Your answer must be one of the following: active, inactive

Study these solved cases before continuing.
- O=[N+]([O-])c1ccc(/C=C/C=C/c2ccc(S(=O)(=O)F)cc2)c(Cl)c1: inactive
- Cc1cc([N+](=O)[O-])c(Cl)cc1NS(=O)(=O)c1ccccc1: inactive
- COc1cc(CNCCc2ccc(Cl)cc2)cc(OC)c1O: active
- CC(=O)O[C@H]1CCC2(C)C(=CCC3C2CCC2(C)/C(=N/OC(=O)c4ccc(N(CCCl)CCCl)cc4)CCC32)C1 (stereo partly drawn): inactive
- CC(C)(O)/C=C/C(=O)[C@](C)(O)[C@H]1[C@H](O)C[C@@]2(C)[C@@H]3CC=C4[C@@H](C=C(O)C(=O)C4(C)C)[C@]3(C)C(=O)C[C@]12C: active

Name the outcome recorded for c1ccc([As]=[As]c2ccccc2)cc1 (stereo not drawn) in the assay. active

Field entry: ClCCN(CCCl)c1ccc(C=NCCc2c[nH]c3ccccc23)cc1 inactive

Field entry: O=C(c1cccs1)C1NO[N+]([O-])=C1c1cccs1 (stereo not drawn) inactive

Field entry: N#CC(C#N)=Cc1ccc2ccccc2c1 inactive

Field entry: COc1cc(C2CC(=O)Nc3nc(N)[se]c32)cc(OC)c1OC (stereo not drawn) inactive

Field entry: O=S(=O)(c1ccc(Cl)cc1)C(Cl)(Cl)Cl active

Field entry: CC(C)[C@]12O[C@H]1[C@@H]1O[C@]13[C@]1(O[C@H]1C[C@H]1C4=C(CC[C@@]13C)C(=O)OC4)[C@@H]2OC(=O)OC(C)(C)C active

Field entry: O=C(O)C1[O][Sb][O]C1C(=O)O (stereo not drawn) inactive

Field entry: COc1cccc2c1C(=O)c1c(O)c3c(c(O)c1C2=O)CC(O)(/C(C)=N/NC(=O)CCC(=O)N/N=C(\C)C1(O)Cc2c(O)c4c(c(O)c2C(OC2CC(N)C(O)C(C)O2)C1)C(=O)c1c(OC)cccc1C4=O)CC3OC1CC(N)C(O)C(C)O1 (stereo not drawn) active

Field entry: C[C@]12C[C@H](O)[C@H]3[C@@H](CCC4=CC(=O)CC[C@@]43C)[C@@H]1CC[C@@H]2O inactive

Field entry: C[CH2][Sn]([CH2]C)([CH2]C)[NH]S(=O)(=O)c1ccc(C)cc1 inactive

Field entry: COc1ccccc1N1CCN(CCc2c[nH]c3cc4c(cc23)OCO4)CC1 inactive

Field entry: CCCCCCCC(=O)OCC/C=C/C1OC1C1OC(=O)/C=C\C=C\c2nc(oc2C)/C=C(/C)CCC2OC2C1OC(=O)NC(C)=O (stereo not drawn) active

====

- Tested on: SN12C renal
- assay-name: NCI-60 one-dose screen, 48 h (100 = growth as untreated, 0 = no growth, -100 = all killed)
- protocol-conditions: 10 µM unless noted
The panel holds about 83,000 compounds, 20% with a hit somewhere; the sample as a whole holds those more often.
experimental-endpoint: growth (%)
Value expressed in %; do not type the unit.

- CC12CCC(=O)C=C1CCC1C2CCC2(C)C(C(=O)COC(=O)Cc3ccc(N(CCCl)CCCl)cc3)CCC12 (stereo not drawn): 73.2
- CN1C(=O)NC(=O)C(N=Nc2ccc(Cl)cc2)C1=O (stereo not drawn): 103
- CC(C)(O)/C=C/C(=O)[C@](C)(O)[C@H]1[C@H](O)C[C@@]2(C)[C@@H]3CC=C4[C@@H](C=C(O)C(=O)C4(C)C)[C@]3(C)C(=O)C[C@]12C: 7
- O=S(=O)(O)c1ccc(-c2ccc([As](=O)(O)O)cc2)cc1: 104
- Oc1ccc2c3c1O[C@H]1c4[nH]c5ccccc5c4C[C@@]4(O)C(C2)N(CC2CC2)CC[C@]314: 103
- CCCCCCCC(=O)OCC/C=C/C1OC1C1OC(=O)/C=C\C=C\c2nc(oc2C)/C=C(/C)CCC2OC2C1OC(=O)NC(C)=O (stereo not drawn): -99.9
- C/C(=N/OC(=O)N(C)C)c1ccc(Cl)cc1Cl: 96.8
- O=[N+]([O-])c1ccc2cnn(CSP(=S)(c3ccccc3)c3ccccc3)c2c1: 69.9
- CNC(=O)Oc1ccccc1-c1ccccc1: 106
- COc1ccc(C2=NN(c3ccccc3)C(c3sc(N(CCCl)CCCl)nc3Cl)C2)cc1 (stereo not drawn): 90.5

Entry CC(=O)O[C@H]1CC[C@H]2[C@@H]3CC[C@H]4CC=C(C)C[C@]4(C)[C@H]3CC[C@]12C has what growth? 101

Field entry: COc1cc(C2=NN(c3ccccc3)C(c3sc(N(CCCl)CCCl)nc3Cl)C2)cc(OC)c1OC (stereo not drawn) 79.9

Field entry: N#C[Se]CCCNS(=O)(=O)C1CC2C=CC1C2 (stereo not drawn) -25.6

Field entry: CC1(CF)NC(=O)NC1=O (stereo not drawn) 94.3

Field entry: [Br][Pb]([c]1ccccc1)([c]1ccccc1)[c]1ccccc1 -83.7

Field entry: CCOC(=O)c1cnc(SCc2ccc(Cl)c(Cl)c2)nc1N1CC1 58.4

Field entry: CNC(=O)O/N=C(/C)c1ccc(Cl)cc1 105

Field entry: CCC[CH2][Sn]([CH2]CCC)([CH2]CCC)[O]C(=O)c1ccc(Cl)cc1Cl -83.9

Field entry: C[C@]12CC[C@@H]3C4=C(CC[C@H]3[C@@H]1CC[C@@H]2O)CC(=O)CC4 99.5

Field entry: COc1cc(N(CCCl)CCCl)ccc1C=Nc1ccccc1C(=O)O 99.2

Field entry: CCN(CC)c1ccc(C=C2C(=O)NC(=S)NC2=O)cc1 91.8

Field entry: C=CCC1(CC)C(=O)NC(=S)NC1=O 93.4

Field entry: Cc1cccc(N(C)c2cccc3c2C(=O)[Se]C3)c1C 84.8

Field entry: Oc1c(Br)cc(Br)cc1Br.[Cu+2] 110
